All values here come from ChEMBL document CHEMBL3045809.

System: Trichogramma nubilale
Test: Contact toxicity against Trichogramma nubilale assessed as mortality after 24 hr by modified slight dry film method
Format: functional
Listed here: items and their measured LC95.
endpoint_name: LC95 (mgAi/L)

molecule: CCOP(=S)(OCC)O/N=C(\C#N)c1ccccc1
endpoint_name: LC95
quantitative_result: 1.35
//
molecule: C/C(=N\C#N)N(C)Cc1ccc(Cl)nc1
endpoint_name: LC95
quantitative_result: 167.9
//
molecule: CC1(C)C(C(=O)OC(C#N)c2cccc(Oc3ccccc3)c2)C1(C)C (stereo not drawn)
endpoint_name: LC95
quantitative_result: 1327.5

====

Tested on: Trichogramma nubilale
Assay: Contact toxicity against Trichogramma nubilale assessed as mortality after 24 hr by modified slight dry film method
Assay type: functional
Listed here: items and their measured LC50.
endpoint_name: LC50 (mgAi/L)

compound: O=[N+]([O-])/N=C1\NCCN1Cc1cnc(Cl)s1
unit_of_measurement: mgAi/L
quantitative_result: 75.27

compound: C/C(=N\C#N)N(C)Cc1ccc(Cl)nc1
unit_of_measurement: mgAi/L
quantitative_result: 19.24

compound: O=C(NC(=O)c1c(F)cccc1F)Nc1cc(Cl)c(OC(F)(F)C(F)F)c(Cl)c1
unit_of_measurement: mgAi/L
quantitative_result: 9672

compound: CCN(Cc1ccc(Cl)nc1)/C(=C/[N+](=O)[O-])NC
unit_of_measurement: mgAi/L
quantitative_result: 4.37

compound: CCCSP(=O)(OCC)Oc1ccc(Br)cc1Cl (stereo not given)
unit_of_measurement: mgAi/L
quantitative_result: 0.18

compound: CC1(C)C(C=C(Cl)Cl)C1C(=O)OC(C#N)c1cccc(Oc2ccccc2)c1 (stereo not given)
unit_of_measurement: mgAi/L
quantitative_result: 19.48

compound: CC[S+]([O-])c1c(C#N)nn(-c2c(Cl)cc(C(F)(F)F)cc2Cl)c1N (stereo not given)
unit_of_measurement: mgAi/L
quantitative_result: 4.67

compound: C=C(C)CNc1c([S+]([O-])C(F)(F)F)c(C#N)nn1-c1c(Cl)cc(C(F)(F)F)cc1Cl (stereo not given)
unit_of_measurement: mgAi/L
quantitative_result: 0.0068

compound: CCOP(=S)(OCC)O/N=C(\C#N)c1ccccc1
unit_of_measurement: mgAi/L
quantitative_result: 0.14

compound: O=C(NC(=O)c1c(F)cccc1F)Nc1cc(Cl)c(Oc2ncc(C(F)(F)F)cc2Cl)c(Cl)c1
unit_of_measurement: mgAi/L
quantitative_result: 7533

compound: CNC(=O)Oc1cccc(C)c1
unit_of_measurement: mgAi/L
quantitative_result: 0.53

compound: CCOP(=S)(OCC)Oc1nc(Cl)c(Cl)cc1Cl
unit_of_measurement: mgAi/L
quantitative_result: 0.081

compound: CC1(C)C(C(=O)OC(C#N)c2cccc(Oc3ccccc3)c2)C1(C)C (stereo not given)
unit_of_measurement: mgAi/L
quantitative_result: 150.3

compound: CNC(=O)Oc1cc(C)cc(C(C)C)c1
unit_of_measurement: mgAi/L
quantitative_result: 0.32

compound: CNC(=O)Oc1ccccc1C(C)C
unit_of_measurement: mgAi/L
quantitative_result: 0.12

compound: CC1(C)[C@H](/C=C(\Cl)C(F)(F)F)[C@@H]1C(=O)O[C@@H](C#N)c1cccc(Oc2ccccc2)c1 (relative stereo)
unit_of_measurement: mgAi/L
quantitative_result: 13.69

compound: O=[N+]([O-])/N=C1\NCCN1Cc1ccc(Cl)nc1
unit_of_measurement: mgAi/L
quantitative_result: 311.9

compound: CCOP(=S)(OCC)Oc1ncn(-c2ccccc2)n1
unit_of_measurement: mgAi/L
quantitative_result: 1.81

compound: COP(=S)(OC)Oc1ccc([N+](=O)[O-])c(C)c1
unit_of_measurement: mgAi/L
quantitative_result: 2.1

compound: CCc1ccc(C(=O)NN(C(=O)c2cc(C)cc(C)c2)C(C)(C)C)cc1 [TEBUFENOZIDE]
unit_of_measurement: mgAi/L
quantitative_result: 3452

compound: N#Cc1nn(-c2c(Cl)cc(C(F)(F)F)cc2Cl)c(N)c1[S+]([O-])C(F)(F)F (stereo not given)
unit_of_measurement: mgAi/L
quantitative_result: 0.29

compound: CC1(C)C(/C=C(\Cl)C(F)(F)F)C1C(=O)OC(C#N)c1cccc(Oc2ccccc2)c1 (stereo not given)
unit_of_measurement: mgAi/L
quantitative_result: 10.98

compound: CN1COCN(Cc2cnc(Cl)s2)/C1=N\[N+](=O)[O-]
unit_of_measurement: mgAi/L
quantitative_result: 1.86

compound: N#C/N=C1\SCCN1Cc1ccc(Cl)nc1
unit_of_measurement: mgAi/L
quantitative_result: 56.73

compound: CCCCN(CCCC)SN(C)C(=O)Oc1cccc2c1OC(C)(C)C2
unit_of_measurement: mgAi/L
quantitative_result: 0.95
